test: differential killing of epithelial or mesenchymal cells, primary screen, imaging, PC-3E GFP, TEM4-18 mCherry, co-culture (AID 1345086); details: imaging cell counts, measured here: epithelial PC-3E GFP cell survival, at 1 µM;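 further: cells exposed to compound for 72 h before imaging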

compound: C[C@@H]1C=C2C=C[C@@](C)(O)[C@](C)(C(=O)CCO)[C@H]2[C@@H](O)C1
normalised cell number: 1.08
//
compound: Nc1cc2ccccc2[nH]c1=O
normalised cell number: 1.14
//
compound: C[C@]12C=CC(=O)C=C1CCC1C3C[C@@H](O)[C@](O)(C(=O)CO)[C@@]3(C)C[C@H](O)[C@@]12F (some centres undefined)
normalised cell number: 0.85
//
compound: CC[C@H]1OC(=O)[C@H](C)[C@@H](O[C@H]2C[C@@](C)(OC)[C@@H](O)[C@H](C)O2)[C@H](C)[C@@H](O[C@@H]2O[C@H](C)C[C@H](N(C)C)[C@H]2O)[C@](C)(O)C[C@@H](C)CN(C)[C@H](C)[C@@H](O)[C@]1(C)O
normalised cell number: 1.02
//
compound: CO/N=C(/C(=O)NC1C(=O)N2C(C(=O)O)=C(COC(N)=O)CSC12)c1ccco1 (centres undefined)
normalised cell number: 1.04
//
compound: CN(C)c1cnccn1
normalised cell number: 0.95
//
compound: C[C@H]1[C@H]2CCC3C4CC=C5C[C@@H](N(C)C)CC[C@]5(C)C4CC[C@@]32CN1C (some centres undefined)
normalised cell number: 0.89
//
compound: O=C(O)CC(O)(CC(=O)O)C(=O)O
normalised cell number: 1.06
//
compound: CC(=O)O[C@@H]1CC2C(C)(C)C(=O)C=C[C@]2(C)C2CC[C@@]3(C)[C@H](c4ccoc4)OC(=O)[C@H]4O[C@]43[C@@]21C (some centres undefined)
normalised cell number: 0.89
//
compound: NC(=O)c1cc[n+](CC2=C(C(=O)O)N3C(=O)C(NC(=O)C(c4ccccc4)S(=O)(=O)[O-])C3SC2)cc1 (centres undefined)
normalised cell number: 1.08
//
compound: NCC1O[C@@H](OC2C(N)C[C@@H](N)C(OC3OC(CO)[C@@H](O)C(N)[C@H]3O)[C@H]2O)C(O)[C@@H](O)C1O (some centres undefined)
normalised cell number: 1.02
//
compound: CC1(C)S[C@@H]2[C@H](NC(=O)C(NC(=O)N3CCNC3=O)c3ccccc3)C(=O)N2C1C(=O)O (some centres undefined)
normalised cell number: 1.15
//
compound: C#C[C@]1(O)CCC2C3CCC4=CC(=O)CC[C@@H]4C3CC[C@@]21C (some centres undefined)
normalised cell number: 1.29
//
compound: C[C@H]1C[C@H]2C(=O)O[C@H]([C@@H](C)CCCC[C@@H](C)O)C[C@@H](O)[C@H](C)C(=O)NC(Cc3ccccc3)C(=O)N2C1 (some centres undefined)
normalised cell number: 1.14
